# experimental-details: qHTS assay for environmental chemicals that activate the Aryl hydrocarbon Receptor (AhR) signaling pathway (AID 651777); further: potency means the concentration at half of the fitted maximal effect; nearly all actives have a fitted effect of over 15% in size
# condition-context: 1A2-DRE human hepatoma cells, luciferase, 24 h
# Source text: National Center for Advancing Translational Sciences [NCATS] NIH Chemical Genomics Center [NCGC] U.S. Environmental Protection Agency [EPA] National Institutes of Environmental Health Sciences [NIEHS] National Toxicology Program [NTP] The Aryl hydrocarbon Receptor (AhR) plays a critical role in the development of cancer or neoplasm and its formation is most likely due to genetic mutations and the influence of environment. […]
Records with an inconclusive call do not appear. Active and inactive are the calls of the source. The call rests on the fitted dose curve; in most records, active means well fitted activation curve with a large enough effect; inconclusive means small, poorly fitted or top-dose-only effect; inactive means flat fitted curve, though single readings scatter.
Overview of recorded Potency for various molecules

molecular-string	Potency
Cc1cc(-c2cc(C)c(N)c(C)c2)cc(C)c1N	10 µM (active)
c1ccc2c(c1)-c1cccc3c1c-2cc1ccccc13	10 µM (active)
Nc1cccc2ccccc12	44.7 µM (active)
Nc1cc(Cl)ccc1O	44.7 µM (active)
CN(C)c1ccc(N=Nc2ccccc2)cc1	44.7 µM (active)
c1ccc2c(c1)ccc1cc3c(ccc4ccccc43)cc12	2.82 µM (active)
Cc1ccc2c(c1N)C(=O)c1ccccc1C2=O	28.2 µM (active)
Cc1cc(N=Nc2ccccc2C)ccc1N	44.7 µM (active)
CN(C)c1ccc(N)cc1	44.7 µM (active)
